# tgt: human β2AR (human, UniProt P07550 2-365)
# assayText: cell-based or functional assay
Bridge positions count the residues as written; N and C are the ends. Square brackets hold non-standard residues; d marks the D form. Primed or numbered codes have the meaning given here. Azk = residue with azidated side chain, clicked to Pra; Pra′ = residue with alkynyl side chain, clicked to Azk; S5 = C=CCCC[C@](C)(N)C(=O)O
readout: Shift (averaged)

binder	assayResult
Ac-FNDCRDIIQRMHLRQYELL-OH [compound 2]	10
Ac-FN[Pra′]CRD[Azk]IQRMHLRQYELL-OH [compound 22]	9
Ac-FNDCRDEIQRKHLRQYELL-OH [compound 3]	2
Ac-FNDCRDEIQRKHLRQYELL-OH (lactam 7-11) [compound 5]	4
Ac-FN[S5]CRD[S5]IQRMHLRQYELL-OH (bridges not given here) [compound 25]	2
